The measurements presented in this section are drawn from patent US20250034151A1.

Entries and their efflux ratio at 90 min, 10 µM
test: Membrane permeability study (Caco-2); type: in vitro ADME; conditions: human, Caco-2, pH 7.4

[
  {
    "molecular.string": "C=CCn1c(=O)c2cnc(Nc3ccc(N4CC5CC(C4)N5C)cc3)nc2n1-c1cccc(C(C)(C)O)n1",
    "efflux ratio at 90 min, 10 µM": 17.4
  },
  {
    "molecular.string": "C=CCn1c(=O)c2cnc(Nc3ccc(N4CC5CC(CN(CC(F)(F)F)C5)C4)cc3)nc2n1-c1cccc(C(C)(C)O)n1",
    "efflux ratio at 90 min, 10 µM": 0.83
  },
  {
    "molecular.string": "C=CCn1c(=O)c2cnc(Nc3ccc(N4C[C@@H]5C[C@H]4CN5C)c(C)c3)nc2n1-c1cccc(C(C)(C)O)n1",
    "efflux ratio at 90 min, 10 µM": 11.8
  },
  {
    "molecular.string": "C=CCn1c(=O)c2cnc(Nc3ccc(N4CC5CC(C4)N5CCF)cc3)nc2n1-c1cccc(C(C)(C)O)n1",
    "efflux ratio at 90 min, 10 µM": 2.65
  },
  {
    "molecular.string": "C=CCn1c(=O)c2cnc(Nc3ccc(N4CC5CC(C4)N5C(C)C)cc3)nc2n1-c1cccc(C(C)(C)O)n1",
    "efflux ratio at 90 min, 10 µM": 7.99
  }
]

----------
Entries and their half-life at 1 µM
test: Liver microsomes in vitro stability (mouse); type: in vitro ADME; conditions: read-out: T1/2/min

[
  {
    "compound": "C=CCn1c(=O)c2cnc(Nc3ccc(OCC)c(CC4C(=O)C5CCN4CC5)c3)nc2n1-c1cccc(N=S(C)(C)=O)n1 (stereo not drawn)",
    "op": "=",
    "half-life at 1 µM (min)": 0.78
  },
  {
    "compound": "C=CCn1c(=O)c2cnc(Nc3ccc4c(c3)C(=O)N(C3CCN(C)CC3)C4)nc2n1-c1cccc(N=S(C)(C)=O)n1",
    "op": ">",
    "half-life at 1 µM (min)": 120
  },
  {
    "compound": "C=CCn1c(=O)c2cnc(Nc3ccc(N4C[C@H]5C[C@@H](C4)N5C)cc3)nc2n1-c1cccc(N=S(C)(C)=O)n1",
    "op": ">",
    "half-life at 1 µM (min)": 120
  },
  {
    "compound": "C=CCn1c(=O)c2cnc(Nc3ccc(N4CC5CC(CN(CCF)C5)C4)cc3)nc2n1-c1cccc(C(C)(C)O)n1",
    "op": "=",
    "half-life at 1 µM (min)": 21.7
  },
  {
    "compound": "C=CCn1c(=O)c2cnc(Nc3cccc(CC4C(=O)C5CCN4CC5)c3)nc2n1-c1cccc(N=S(C)(C)=O)n1 (stereo not drawn)",
    "op": "=",
    "half-life at 1 µM (min)": 1.34
  },
  {
    "compound": "C=CCn1c(=O)c2cnc(Nc3ccc(C(=O)N(C)C4CN5CCC4CC5)cc3)nc2n1-c1cccc(C(C)(C)O)n1 (stereo not drawn)",
    "op": "=",
    "half-life at 1 µM (min)": 25.1
  },
  {
    "compound": "C=CCn1c(=O)c2cnc(Nc3ccc(N(C)[C@@H]4CN5CCC4CC5)cc3)nc2n1-c1cccc(C(C)(C)O)n1",
    "op": "=",
    "half-life at 1 µM (min)": 48.1
  },
  {
    "compound": "C=CCn1c(=O)c2cnc(Nc3ccc(N4CC5CC(C4)N5C)cc3)nc2n1-c1ccc2oc(=O)n(CC)c2c1",
    "op": "=",
    "half-life at 1 µM (min)": 77
  },
  {
    "compound": "C=CCn1c(=O)c2cnc(Nc3ccc(N4CC5CC(C4)N5C)cc3)nc2n1-c1ccc2ccn(CC)c2n1",
    "op": "=",
    "half-life at 1 µM (min)": 14.7
  }
]

----------
assay: Plasma protein binding (PPB), equilibrium dialysis; assay type: in vitro ADME; settings: mouse plasma, 5 h dialysis

[
  {
    "compound": "C=CCn1c(=O)c2cnc(Nc3ccc(N4CC5CC(C4)N5C)cc3)nc2n1-c1ccc2ccn(CC)c2n1 [Compound 51]",
    "fraction unbound at 5 h, 1 µM": 0.03
  },
  {
    "compound": "C=CCn1c(=O)c2cnc(Nc3ccc(N4CC5CC(C4)N5C)cc3)nc2n1-c1ccc2cnn(CC)c2n1 [Compound 53]",
    "fraction unbound at 5 h, 1 µM": 0.035
  },
  {
    "compound": "C=CCn1c(=O)c2cnc(Nc3ccc(N4CCOC5(CCCN(C)C5)C4)cc3)nc2n1-c1cccc(C(C)(C)O)n1 (stereo not shown) [Compound 46]",
    "fraction unbound at 5 h, 1 µM": 0.179
  },
  {
    "compound": "C=CCn1c(=O)c2cnc(Nc3ccc(N4CCN(C)CC4)cc3)nc2n1-c1cccc(C(C)(C)O)n1 [AZD1775]",
    "fraction unbound at 5 h, 1 µM": 0.087
  },
  {
    "compound": "C=CCn1c(=O)c2cnc(Nc3ccc(N4CC5CC(C4)N5CCF)cc3)nc2n1-c1cccc(C(C)(C)O)n1 [Compound 48]",
    "fraction unbound at 5 h, 1 µM": 0.031
  },
  {
    "compound": "C=CCn1c(=O)c2cnc(Nc3ccc(N4CC5CC(C4)N5C4CCC4)cc3)nc2n1-c1cccc(C(C)(C)O)n1 [Compound 49]",
    "fraction unbound at 5 h, 1 µM": 0.042
  },
  {
    "compound": "C=CCn1c(=O)c2cnc(Nc3ccc(N4CC5CC(C4)N5C)cc3)nc2n1-c1cccc(C(C)(C)O)n1 [Compound 27]",
    "fraction unbound at 5 h, 1 µM": 0.141
  }
]

----------
pIC50: −log10 of the molar value.
Entries with reported pIC50 on Wee1 protein (Homo sapiens, UniProt P30291)
Sequence (P30291 whole entry): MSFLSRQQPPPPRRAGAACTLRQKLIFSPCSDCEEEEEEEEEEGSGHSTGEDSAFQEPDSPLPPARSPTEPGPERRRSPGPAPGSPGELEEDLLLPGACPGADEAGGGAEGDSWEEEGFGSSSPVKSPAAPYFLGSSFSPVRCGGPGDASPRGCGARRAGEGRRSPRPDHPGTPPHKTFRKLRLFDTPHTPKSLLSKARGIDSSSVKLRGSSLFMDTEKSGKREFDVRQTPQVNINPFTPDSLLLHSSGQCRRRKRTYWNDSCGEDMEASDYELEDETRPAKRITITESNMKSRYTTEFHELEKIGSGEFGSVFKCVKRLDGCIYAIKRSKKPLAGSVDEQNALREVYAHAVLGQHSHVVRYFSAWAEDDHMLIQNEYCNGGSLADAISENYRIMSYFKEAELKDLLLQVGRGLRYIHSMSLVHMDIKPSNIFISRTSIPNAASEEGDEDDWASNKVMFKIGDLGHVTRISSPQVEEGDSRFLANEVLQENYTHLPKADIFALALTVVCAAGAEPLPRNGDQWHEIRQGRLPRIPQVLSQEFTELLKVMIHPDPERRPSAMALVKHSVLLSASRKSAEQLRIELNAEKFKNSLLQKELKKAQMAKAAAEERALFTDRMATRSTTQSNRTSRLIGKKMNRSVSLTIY

[
  {
    "molecule": "C=CCn1c(=O)c2cnc(Nc3ccc(N4C[C@@H]5C[C@H]4CN5C)cc3)nc2n1-c1cccc(N=S(C)(C)=O)n1 [Compound 5]",
    "system": "Wee1 protein (Homo sapiens, UniProt P30291)",
    "pIC50": "> 8.30"
  },
  {
    "molecule": "C=CCn1c(=O)c2cnc(Nc3ccc(N4CC5CC(C4)N5C)cc3)nc2n1-c1ccc2c(c1)C(C)(O)CO2 (stereo not shown) [Compound 57]",
    "system": "Wee1 protein (Homo sapiens, UniProt P30291)",
    "pIC50": "7.00 to 8.00"
  },
  {
    "molecule": "C=CCn1c(=O)c2cnc(Nc3ccc(N4CC5CC(CN(C)C5)C4)cc3)nc2n1-c1cccc(C(C)(C)O)n1 [Compound 23]",
    "system": "Wee1 protein (Homo sapiens, UniProt P30291)",
    "pIC50": "7.00 to 8.00"
  },
  {
    "molecule": "C=CCn1c(=O)c2cnc(Nc3ccc(N4CCN(C5CN6CCC5CC6)CC4)cc3)nc2n1-c1cccc(N=S(C)(C)=O)n1 (stereo not shown) [Compound 11]",
    "system": "Wee1 protein (Homo sapiens, UniProt P30291)",
    "pIC50": "8.00 to 8.30"
  },
  {
    "molecule": "C=CCn1c(=O)c2cnc(Nc3ccc(N4CCOc5ccccc54)cc3)nc2n1-c1cccc(C(C)(C)O)n1 [Compound 31]",
    "system": "Wee1 protein (Homo sapiens, UniProt P30291)",
    "pIC50": "7.00 to 8.00"
  },
  {
    "molecule": "C=CCn1c(=O)c2cnc(Nc3ccc(N4CC5CC(C4)N5C)c(F)c3)nc2n1-c1cccc(C(C)(C)O)n1 [Compound 78]",
    "system": "Wee1 protein (Homo sapiens, UniProt P30291)",
    "pIC50": "7.00 to 8.00"
  },
  {
    "molecule": "C=CCn1c(=O)c2cnc(Nc3ccc(N4CCN(C)CC4)cc3)nc2n1-c1ccc2c(C(C)=O)cn(CC)c2n1 [Compound 70]",
    "system": "Wee1 protein (Homo sapiens, UniProt P30291)",
    "pIC50": "8.00 to 8.30"
  }
]

----------
molecular target: UniProt:P33261; test: in vitro; details: CYP2C19 enzyme, pH 7.4, probe EOMCC (0.01 mM)
Sequence (P33261 whole entry, species assumed): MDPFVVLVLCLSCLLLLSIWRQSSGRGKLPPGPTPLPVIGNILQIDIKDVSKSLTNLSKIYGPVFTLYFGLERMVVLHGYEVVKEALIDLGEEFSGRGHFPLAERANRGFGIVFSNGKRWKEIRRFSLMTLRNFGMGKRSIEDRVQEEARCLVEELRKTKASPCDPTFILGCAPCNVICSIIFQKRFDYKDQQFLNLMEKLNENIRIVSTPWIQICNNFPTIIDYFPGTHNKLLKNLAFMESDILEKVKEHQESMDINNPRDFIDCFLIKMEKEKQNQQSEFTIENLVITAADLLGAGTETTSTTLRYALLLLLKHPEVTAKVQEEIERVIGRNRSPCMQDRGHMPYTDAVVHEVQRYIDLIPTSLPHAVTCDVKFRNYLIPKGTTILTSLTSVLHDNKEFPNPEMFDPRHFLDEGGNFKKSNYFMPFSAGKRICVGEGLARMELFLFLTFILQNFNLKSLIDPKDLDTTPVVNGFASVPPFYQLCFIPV

[
  {
    "molecular.string": "C=CCn1c(=O)c2cnc(Nc3ccc(N4CCN(C)CC4)cc3)nc2n1-c1cccc(C(C)(C)O)n1",
    "inhibition at 30 min, 1 µM": "25.4%"
  }
]

----------
system: MIA PaCa2 cells; assay: Anti-proliferative effect on MIA PaCa2 cells by Cell Titer-Glo; format: cell-based; conditions: Homo sapiens, MIA PaCa-2, 72 h, 3 days, read-out: MIA PaCa 2 (IC50, inhibition of proliferation in vitro)
pIC50: −log10 of the molar value.
measurement.type: pIC50

[
  {
    "molecule": "C=CCn1c(=O)c2cnc(Nc3ccc(N4CC5CC(C4)N5CCF)cc3)nc2n1-c1cccc(C(C)(C)O)n1",
    "result": "6.00 to 7.00"
  },
  {
    "molecule": "C=CCn1c(=O)c2cnc(Nc3ccc(N4CC5CC4CN5C4CCN(C)CC4)c(C)c3)nc2n1-c1cccc(C(C)(C)O)n1 (centres unmarked)",
    "result": "6.00 to 7.00"
  },
  {
    "molecule": "C=CCn1c(=O)c2cnc(Nc3ccc([C@H]4C[C@@]45C(=O)C4CCN5CC4)cc3)nc2n1-c1cccc(N=S(C)(C)=O)n1 [Compound 47a]",
    "result": "5.70 to 6.00"
  },
  {
    "molecule": "C=CCn1c(=O)c2cnc(Nc3cnn(-c4ccc(N(C)C)cc4)c3)nc2n1-c1cccc(C(C)(C)O)n1",
    "result": "5.00 to 5.30"
  },
  {
    "molecule": "C=CCn1c(=O)c2cnc(Nc3ccc(N4CCN(C)CC4)cc3)nc2n1-c1cccc(C(C)(C)O)n1",
    "result": "6.00 to 7.00"
  },
  {
    "molecule": "C=CCn1c(=O)c2cnc(Nc3ccc(N4CC5CC(C4)N5C)cc3)nc2n1-c1ccc2ccn(CC)c2n1",
    "result": "6.00 to 7.00"
  },
  {
    "molecule": "C=CCn1c(=O)c2cnc(Nc3ccc(-c4cc(=O)[nH]c5c4N4CCC5CC4)cc3)nc2n1-c1cccc(C(C)(C)O)n1",
    "result": "< 5.00"
  },
  {
    "molecule": "C=CCn1c(=O)c2cnc(Nc3ccc(N4CC5CC(C4)N5C(C)=O)cc3)nc2n1-c1cccc(C(C)(C)O)n1",
    "result": "6.00 to 7.00"
  },
  {
    "molecule": "C=CCn1c(=O)c2cnc(Nc3ccc(-n4cc(N5CCCC5)cn4)cc3)nc2n1-c1cccc(C(C)(C)O)n1",
    "result": "5.70 to 6.00"
  },
  {
    "molecule": "C=CCn1c(=O)c2cnc(Nc3ccc(N4CC5CC(C4)N5C)cc3)nc2n1-c1ccc2c(c1)C(C)(O)CO2 (centres unmarked)",
    "result": "< 5.00"
  },
  {
    "molecule": "C=CCn1c(=O)c2cnc(Nc3ccc(N4CCOc5ccccc54)cc3)nc2n1-c1cccc(C(C)(C)O)n1",
    "result": "5.00 to 5.30"
  },
  {
    "molecule": "C=CCn1c(=O)c2cnc(Nc3ccc(N4CC5CC(C4)N5C)cc3)nc2n1-c1cccc(C(C)(C)OC)n1",
    "result": "6.00 to 7.00"
  },
  {
    "molecule": "C=CCn1c(=O)c2cnc(Nc3ccc(N4CC5CC(CN(CCOC)C5)C4)cc3)nc2n1-c1cccc(C(C)(C)O)n1",
    "result": "5.30 to 5.70"
  },
  {
    "molecule": "C=CCn1c(=O)c2cnc(Nc3ccc(N4CC5CC(C4)N5CCOC)cc3)nc2n1-c1cccc(C(C)(C)O)n1",
    "result": "≥ 7.00"
  }
]
